Target: T1, Cynomolgus CD3 on Cyno CD3+ Jurkat cells (cynomolgus, UniProt Q95LI5 22-198)
T1 construct: whole, on cells; CD3 on cells; also called cCD3
T1 sequence (Q95LI5 22-198): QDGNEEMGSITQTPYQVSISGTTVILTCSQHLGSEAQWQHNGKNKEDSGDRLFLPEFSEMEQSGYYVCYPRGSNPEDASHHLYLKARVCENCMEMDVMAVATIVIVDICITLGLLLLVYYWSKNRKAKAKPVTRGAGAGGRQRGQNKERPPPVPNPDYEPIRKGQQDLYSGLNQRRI
Assay: cell binding cCD3, fold over background

binder: ADI-45971 (antibody, V domains shown, also called Ab7) VH: QVQLVQSGAEVKKPGATVKVSCKASGFNIKDYYIHWVRQAPGQRLEWIGWIDLENANTVYDAKFQGRVTITRDTSASTAYMELSSLRSEDTAVYYCARDAYGRYFYDVWGQGTLVTVSS VL: DIVMTQSPDSLAVSLGERATINCKSSQSLLNARTRKNYLAWYQQKPGQPPKLLIYWASTRESGVPDRFSGSGSGTDFTLTISSLQAEDVAVYYCVQSYFRRTFGGGTKVEIK
Cell Binding cCD3 (FOB): 20
--
binder: ADI-46381 (antibody, V domains shown, also called Ab43) VH: QVQLVQSGAEVKKPGASVKVSCKASGFNIKDYYMHWVRQAPGQRLEWIGWIDLENANTVYDTKFQGRVTITRDTSASTAYMELSSLRSEDTAVYYCARDAYGRYFYDVWGQGTLVTVSS VL: DIVMTQSPDSLAVSLGERATINCKTSQGLLNARTNKNYLAWYQQKPGQPPKLLIYWASTRESGVPDRFSGSGSGTDFTLTISSLQAEDVAVYYCVQSYFRRTFGGGTKVEIK
Cell Binding cCD3 (FOB): 174
--
binder: ADI-46374 (antibody, V domains shown, also called Ab37) VH: QVQLVQSGAEVKKPGASVKVSCKASGFNIKDYYMHWVRQAPGQRLEWIGWIDLNNANTVYDAKFQGRVTITRDTSASTAYMELSSLRSEDTAVYYCARDAYGRYFYDVWGQGTLVTVSS VL: DIVMTQSPDSLAVSLGERATINCKSSQSLLNARTGKNYLAWYQQKPGQPPKLLIYWASTRESGVPDRFSGSGSGTDFTLTISSLQAEDVAVYYCVQSYFRRTFGGGTKVEIK
Cell Binding cCD3 (FOB): 29
